Kindly state microsomal CLint at 0.5 h, 0.5 µM for each of the entries shown.
Experiment: in vitro
Settings: mouse, liver microsomes
Description: Metabolic stability in mouse liver microsomes assessed as intrinsic clearance at 0.5 uM incubated for 30 mins by LC-MS/MS analysis
Unit µL/min/mg implied. Number only.

(Q) Provide measured microsomal CLint at 0.5 h, 0.5 µM value, entry: CCN(CCc1nc2ncc(Cl)cc2[nH]1)C(=O)c1ccc(F)cc1
(A) 108

(Q) Provide measured microsomal CLint at 0.5 h, 0.5 µM value, entry: O=C(c1ccccc1)N1CCC(O)(c2cc3ncccc3[nH]2)CC1
(A) 193

(Q) Provide measured microsomal CLint at 0.5 h, 0.5 µM value, entry: O=C(c1ccccc1)N1CCCC(c2cn3cccnc3n2)C1 (stereo unspecified)
(A) 127

(Q) Provide measured microsomal CLint at 0.5 h, 0.5 µM value, entry: O=C(c1ccccc1)N1CCCC(c2nc3ncccc3[nH]2)C1 (stereo unspecified)
(A) 173

(Q) Provide measured microsomal CLint at 0.5 h, 0.5 µM value, entry: O=C(c1cc(C(F)(F)F)no1)N1CCC(c2cc3ncccc3[nH]2)C1 (stereo unspecified)
(A) 1110
